Measured values drawn from paper PMC5540273 for this set.

In this section we review reported %Inh values for a set of molecules.
Test system: CLK2
Run Parameters: concentration: 1 μM, replicates: in singlicate; n = 1;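 note: KINOMEscan kinase panel screen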
Write the figure, then the unit, nothing else.

{"columns": ["Chemical String", "Value Measured"],
 "data": [
  ["COc1cc(Nc2ccnc3cc(-c4ccncc4)ccc23)cc(OC)c1OC.Cl", "0%"]
]}

The molecule identified as Cn1cc(-c2cnc(N)c3c(-c4ccc5c(c4)CCN5C(=O)Cc4ccccc4)csc23)cn1 registered its %Inh at 19%

The molecule identified as Cc1ccccc1CC(=O)N1CCc2cc(-c3cn(C)c4ncnc(N)c34)ccc21 registered its %Inh at 0%

The molecule identified as Fc1cc(Cl)ccc1Nc1ccnc2cc(-c3ccc(CN4CCSCC4)o3)ccc12 registered its %Inh at 0%

----------
Test system: PKN1
Run Parameters: concentration: 1 μM, replicates: in singlicate; n = 1
In this section we review reported %Inh values for a set of molecules.
The figure you give is taken to be in %; do not add the unit.

{"columns": ["Molecule", "Value Measured"],
 "data": [
  ["CCn1c(-c2nonc2N)nc2c(-c3ccccc3)ncc(OCCCN)c21.O=C(O)C(F)(F)F.O=C(O)C(F)(F)F", 84],
  ["CC(C)(C)c1ccc(C(=O)Nc2cn3cc(-n4ccnc4)ccc3n2)cc1", 10],
  ["Cl.Cl.NCC(NC(=O)c1cc(-c2cccnc2)c(-c2ccnc3[nH]ccc23)s1)c1ccccc1 (centres unmarked)", 0],
  ["Cc1cc(-c2ccnc(Nc3cccc(C#N)c3)n2)cc(C)c1O", 0],
  ["CS(=O)(=O)c1cccc(CNc2nc(Nc3ccc4c(c3)CCC(=O)N4)ncc2C(F)(F)F)c1", 49]
]}

The molecule identified as Nc1ncc(-c2cn[nH]c2)c2scc(-c3ccc4c(c3)CCN4C(=O)Cc3ccccc3)c12 registered its %Inh at 12

The molecule identified as Fc1cc(Cl)ccc1Nc1ccnc2cc(-c3ccc(CN4CCOCC4)o3)ccc12 registered its %Inh at 100

The molecule identified as Cc1ccc(C)c(NC(=O)Nc2ccc(C)c(-c3ccc(C(=O)Nc4ccncc4)cc3)c2)c1 registered its %Inh at 26

The molecule identified as CC(C)c1nc(-c2ccc(F)c(NS(=O)(=O)c3c(F)cccc3F)c2)c(-c2ccnc(Nc3ccc(N4CCOCC4)nc3)n2)s1 registered its %Inh at 59

The molecule identified as O=C(Nc1c(F)cccc1F)c1cc(C(=O)c2ccccc2F)c[nH]1 registered its %Inh at 8

----------
Test system: CTK
Construct: gene MATK
Run Parameters: concentration: 1 μM, replicates: in singlicate; n = 1
Measure: %Inh (%)
The figure you give is taken to be in %; do not add the unit.

Worked examples, 3 compounds total:
{"columns": ["Compound", "%Inh (%)"],
 "data": [
  ["Cc1cccc(Nc2nc(N[C@H]3CCCC[C@H]3N)ncc2C(N)=O)c1.Cl", 0],
  ["COc1cccc2c(-c3ccncc3)c(-c3ccc(F)cc3)nn12", 8],
  ["COc1cccc(C2=C(Nc3cccc(O)c3)C(=O)NC2=O)c1", 0]
]}

The reported %Inh value, CTK, for CN(c1ccc(F)c(NC(=O)c2cccc(OC(C)(C)C#N)c2Cl)c1)c1ccc2nc(NC(=O)C3CC3)sc2n1 reads 13

The reported %Inh value, CTK, for COc1cc(Nc2nccc(N3CCC(NC(=O)Nc4ccc5c(c4)OCO5)C3)n2)cc(OC)c1OC (centres unmarked) reads 0

The reported %Inh value, CTK, for COc1ccc(NC(=O)c2ccoc2)cc1-c1ccc(C(=O)NCC2CC2)cc1 reads 15

The reported %Inh value, CTK, for CCn1cnc2c(NCc3ccccc3)ncnc21 reads 34
